tested on: Yap1 mRNA; assay: Dose-dependent inhibition of human Yap1 in A-431 cells (Example 8, 10,000 cells per well, RTS4814); assay type: cell-based; conditions: 2000.00 nM; A-431 cells, 10,000 cells per well, free uptake, approximately 48 hours, RTS4814
Strand notation (5' to 3'): a small letter for the sugar, then the base; units joined by * are phosphorothioate-linked, units joined directly phosphodiester-linked; [ ] holds rarer units or linkages, { } end groups; capitals alone tell only the bases. k = constrained ethyl (cEt); [5mC] = 5-methylcytosine; d = 2'-deoxy (DNA)
Outcome label depends on Yap1 mRNA, % UTC relative to 6 % UTC: at/above gives yes (1), below gives no (0).

Query: # bool: Yap1 mRNA, % UTC of 1076448 (k[5mC]*kT*kT*dA*dT*dA*dA*dT*dG*d[5mC]*dA*dA*dT*k[5mC]*k[5mC]*kT; antisense) [compound 1076448] >= 6 % UTC
Result: no (0)

Query: # bool: Yap1 mRNA, % UTC of 1074626 (DNA k[5mC]*kT*kG*dT*dT*dA*dT*dG*dA*dA*d[5mC]*d[5mC]*d[5mC]*kT*kT*kG) [compound 1074626] >= 6 % UTC
Result: no (0)

Query: # bool: Yap1 mRNA, % UTC of 1076467 (kG*kT*kA*dT*dT*dT*dA*dG*dA*dG*d[5mC]*dT*dT*kA*kA*kG; antisense) [compound 1076467] >= 6 % UTC
Result: no (0)

Query: # bool: Yap1 mRNA, % UTC of 1074736 (kT*k[5mC]*kA*dG*dT*dA*d[5mC]*dA*dG*dA*dG*dG*dG*k[5mC]*kA*kT; antisense) [compound 1074736] >= 6 % UTC
Result: yes (1)

Query: # bool: Yap1 mRNA, % UTC of 1075143 (k[5mC]*k[5mC]*kT*dT*dA*dT*dT*dA*dG*dT*d[5mC]*dA*dG*kT*kT*k[5mC]; antisense) [compound 1075143] >= 6 % UTC
Result: no (0)

Query: # bool: Yap1 mRNA, % UTC of 1076067 (kG*k[5mC]*kA*dT*dA*dT*dA*dA*dG*dA*dT*dG*dT*kT*kT*kG; antisense) [compound 1076067] >= 6 % UTC
Result: no (0)

Query: # bool: Yap1 mRNA, % UTC of 1074477 (kG*kT*kT*d[5mC]*d[5mC]*dG*dA*d[5mC]*dA*dA*dA*dA*d[5mC]*k[5mC]*kA*kA; antisense) [compound 1074477] >= 6 % UTC
Result: yes (1)

Query: # bool: Yap1 mRNA, % UTC of 1076326 (kG*k[5mC]*kT*dA*dA*dT*dA*dA*dT*dG*dG*dA*dA*kG*kA*kG; antisense) [compound 1076326] >= 6 % UTC
Result: no (0)

Query: # bool: Yap1 mRNA, % UTC of 1076396 (antisense k[5mC]*kT*kA*dT*dA*dT*dT*dT*dG*dA*dG*d[5mC]*d[5mC]*kA*kT*kG) [compound 1076396] >= 6 % UTC
Result: no (0)

Query: # bool: Yap1 mRNA, % UTC of 1074351 (antisense kA*kT*kG*d[5mC]*dT*dT*dA*dG*dT*d[5mC]*d[5mC]*dA*d[5mC]*kT*kG*kT) [compound 1074351] >= 6 % UTC
Result: yes (1)

Query: # bool: Yap1 mRNA, % UTC of 1074579 (DNA k[5mC]*k[5mC]*kA*d[5mC]*dT*dA*dT*dA*dA*dA*dG*d[5mC]*dT*kT*kA*kT) [compound 1074579] >= 6 % UTC
Result: no (0)

Query: # bool: Yap1 mRNA, % UTC of 1074638 (antisense kA*kG*kA*dT*dT*dT*dT*dG*dT*dA*dA*dT*dT*kG*kG*kG) [compound 1074638] >= 6 % UTC
Result: no (0)

Query: # bool: Yap1 mRNA, % UTC of 1076366 (antisense kA*kT*kT*dT*dA*d[5mC]*dA*dT*dG*dA*dG*dA*dG*kG*kA*kG) [compound 1076366] >= 6 % UTC
Result: no (0)

Query: # bool: Yap1 mRNA, % UTC of 1076490 (k[5mC]*k[5mC]*kA*dA*dA*dA*dT*dA*dG*dG*dT*dG*dA*kG*kT*k[5mC]; antisense) [compound 1076490] >= 6 % UTC
Result: no (0)

Query: # bool: Yap1 mRNA, % UTC of 1074221 (antisense kG*kA*kA*dT*dG*dA*dG*d[5mC]*dT*d[5mC]*dG*dA*dA*k[5mC]*kA*kT) [compound 1074221] >= 6 % UTC
Result: yes (1)

Query: # bool: Yap1 mRNA, % UTC of 1075810 (kG*kT*kA*dG*d[5mC]*dA*dA*dT*dA*dG*dA*dG*dT*kA*kA*k[5mC]; antisense) [compound 1075810] >= 6 % UTC
Result: yes (1)

Query: # bool: Yap1 mRNA, % UTC of 1074290 (antisense k[5mC]*kT*kG*dA*d[5mC]*dT*dG*dA*dT*dT*d[5mC]*dT*d[5mC]*kT*kG*kG) [compound 1074290] >= 6 % UTC
Result: yes (1)

Query: # bool: Yap1 mRNA, % UTC of 1074537 (k[5mC]*kA*kG*dT*dA*dA*dT*dA*dG*d[5mC]*dT*d[5mC]*dT*kT*kT*k[5mC]; antisense) [compound 1074537] >= 6 % UTC
Result: no (0)

Query: # bool: Yap1 mRNA, % UTC of 1075242 (k[5mC]*kA*kG*dG*dG*dA*dT*dA*dA*dT*dT*dA*d[5mC]*kT*kA*kA; antisense) [compound 1075242] >= 6 % UTC
Result: yes (1)

Query: # bool: Yap1 mRNA, % UTC of 1074508 (kG*kA*kG*dA*dG*dA*dG*d[5mC]*dA*dG*dA*dT*dA*kA*kT*k[5mC]; antisense) [compound 1074508] >= 6 % UTC
Result: yes (1)

Query: # bool: Yap1 mRNA, % UTC of 1074313 (antisense kT*kG*kA*dT*dA*dT*dT*d[5mC]*d[5mC]*dG*d[5mC]*dA*dT*kT*kG*k[5mC]) [compound 1074313] >= 6 % UTC
Result: no (0)

Query: # bool: Yap1 mRNA, % UTC of 1074756 (kG*k[5mC]*kA*d[5mC]*dT*dT*dT*dT*dA*d[5mC]*dA*dT*dT*kA*kG*kG) [compound 1074756] >= 6 % UTC
Result: no (0)

Query: # bool: Yap1 mRNA, % UTC of 1075155 (kT*k[5mC]*kA*dT*dT*dA*dT*dA*dA*dT*dG*dG*dG*kA*kG*kG; antisense) [compound 1075155] >= 6 % UTC
Result: no (0)
